Cited source: PubChem BioAssay (NCI)

tested on: NCI-H226 lung; experiment: NCI tumour cell line growth inhibition, 48 h
The entries below come with measured TGI values attached.
The reply should be a number in µM, with the unit left off.

- Compound: "O=C(CCl)NCCNc1nccc(Nc2ccc(S(=O)(=O)Nc3ccccn3)cc2)n1"
  Display unit: "µM"
  TGI: 28.3

Shift focus to the following entry.
What value of measured TGI is listed for O=C(CC1(O)C(=O)N(Cc2ccccc2)c2ccc(Cl)cc21)c1ccc(C(=O)NCC2CCC3(CC2)OOC2(CCCCC2)OO3)cc1 (stereo not given) ?
9.06

###

system: ACHN renal; experiment: NCI tumour cell line growth inhibition, 48 h
Recorded endpoint: TGI (µM)
The reply should be a number in µM, with the unit left off.

// known answers, use as guide
- Compound: "NC(=NCc1ccccc1)C(N=Nc1ccccc1)C(=O)NCc1ccccc1 (stereo not given)"
  Display unit: "µM"
  TGI: 39.3
- Compound: "COc1ccc([N+](=O)[O-])c2c(NCCCN(C)C)ccnc12"
  Display unit: "µM"
  TGI: 14.5

Shift focus to the following entry.
What value of measured TGI is listed for `COc1cccc(/C=C/C(=O)c2ccc(SC)cc2)c1OC` ?
33.7
